biological target: HCMV polymerase (Human cytomegalovirus, UniProt P08546); construct: made in house; host or cells: SF-9 insect cells infected with recombinant baculovirus; experiment: HCMV polymerase assay (scintillation proximity assay); assay type: biochemical; details: percentage of inhibition at 25 μM concentration in CMV polymerase assay
Sequence (P08546 whole entry): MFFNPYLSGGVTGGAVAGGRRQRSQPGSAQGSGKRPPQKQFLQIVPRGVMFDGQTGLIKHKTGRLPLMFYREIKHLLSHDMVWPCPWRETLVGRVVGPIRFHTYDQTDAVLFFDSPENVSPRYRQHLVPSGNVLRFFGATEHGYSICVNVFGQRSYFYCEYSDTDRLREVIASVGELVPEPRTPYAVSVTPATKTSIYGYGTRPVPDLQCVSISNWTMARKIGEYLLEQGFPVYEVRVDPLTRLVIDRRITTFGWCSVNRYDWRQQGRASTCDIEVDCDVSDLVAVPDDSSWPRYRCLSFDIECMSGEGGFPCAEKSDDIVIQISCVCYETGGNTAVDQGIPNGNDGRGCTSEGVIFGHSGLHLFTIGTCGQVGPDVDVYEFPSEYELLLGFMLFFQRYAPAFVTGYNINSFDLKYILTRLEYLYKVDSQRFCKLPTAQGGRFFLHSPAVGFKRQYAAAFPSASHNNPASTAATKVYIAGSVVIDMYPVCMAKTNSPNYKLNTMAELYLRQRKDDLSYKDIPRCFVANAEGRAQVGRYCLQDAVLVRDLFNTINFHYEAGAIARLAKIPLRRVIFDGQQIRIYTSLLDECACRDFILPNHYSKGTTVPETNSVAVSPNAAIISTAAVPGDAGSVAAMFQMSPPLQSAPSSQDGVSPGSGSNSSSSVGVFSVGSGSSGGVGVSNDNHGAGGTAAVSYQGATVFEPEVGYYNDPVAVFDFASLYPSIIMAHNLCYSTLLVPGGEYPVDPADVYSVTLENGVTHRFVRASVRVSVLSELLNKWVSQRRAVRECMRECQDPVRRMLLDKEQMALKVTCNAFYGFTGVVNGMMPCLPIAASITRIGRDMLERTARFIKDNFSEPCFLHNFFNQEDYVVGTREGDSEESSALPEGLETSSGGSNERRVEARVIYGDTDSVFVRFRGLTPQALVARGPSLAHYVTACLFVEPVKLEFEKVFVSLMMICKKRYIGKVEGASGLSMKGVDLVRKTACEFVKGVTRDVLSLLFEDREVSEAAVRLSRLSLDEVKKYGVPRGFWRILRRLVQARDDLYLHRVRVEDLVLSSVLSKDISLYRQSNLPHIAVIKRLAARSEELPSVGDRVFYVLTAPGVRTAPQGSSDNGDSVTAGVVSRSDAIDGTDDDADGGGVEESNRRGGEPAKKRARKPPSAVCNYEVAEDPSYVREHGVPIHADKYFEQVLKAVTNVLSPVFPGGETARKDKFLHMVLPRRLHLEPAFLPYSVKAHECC
Outcome: 1.0 for inhibition at 25 µM of at least 40%; 0.0 for anything lower.

[ask] Is the recorded value of inhibition at 25 µM equal to or greater than 40% for this compound? O=C(Nc1nnc(NCCCN2CCCC2=O)s1)c1cc(F)cc(F)c1 [compound 228]
[reply] 1.0

[ask] I'd appreciate it if you could say whether CCOc1ccc2ccccc2c1C(=O)Nc1nnc(NCc2cccc3ccccc23)s1 [compound 136] has inhibition at 25 µM at least equal to 40%.
[reply] 1.0

[ask] Entry O=C(Nc1nnc(NCCC(c2ccccc2)c2ccccc2)s1)c1cc(F)cc(F)c1 [compound 281] : is its inhibition at 25 µM no less than 40%?
[reply] 0.0

[ask] Hello, I need to know if CCCCCCCC/C=C/CCCCCCCC(=O)Nc1nnc(NCCN(C)C)s1 [compound 23] has measured inhibition at 25 µM not below 40%. Thanks!
[reply] 1.0

====

biological target: HCMV polymerase (Human cytomegalovirus); construct: made in house; host or cells: SF-9 insect cells infected with recombinant baculovirus; assay: HCMV polymerase assay (scintillation proximity assay); type: biochemical; conditions: percentage of inhibition at 25 μM concentration in CMV polymerase assay
Short version: inhibition at 25 µM at least 50% is TRUE, less is FALSE.

[ask] Please indicate if the recorded inhibition at 25 µM for O=C(Nc1nnc(NCCC(c2ccccc2)c2ccccc2)s1)c1ccc(I)cc1 [compound 297] meets or exceeds 50%.
[reply] FALSE

[ask] Test whether the compound O=C(Nc1nnc(NCCNc2ccccc2)s1)c1c(Cl)cccc1Cl [compound 438] records inhibition at 25 µM of 50% or higher.
[reply] FALSE

[ask] I'd appreciate it if you could say whether NS(=O)(=O)c1ccc(CNc2nnc(NC(=O)c3c(Cl)cccc3Cl)s2)cc1 [compound 30] has inhibition at 25 µM at least equal to 50%.
[reply] TRUE

[ask] Identify whether the reported inhibition at 25 µM of the following compound is 50% or greater: Cc1ccc(C(=O)Nc2nnc(NCCCNC3CCCCC3)s2)cc1 [compound 162]
[reply] TRUE

[ask] Entry CCCCCCCC/C=C/CCCCCCCC(=O)Nc1nnc(NCC2CC2)s1 [compound 113] : is its inhibition at 25 µM no less than 50%?
[reply] TRUE

[ask] Quick check: does CCCCCCCC/C=C/CCCCCCCC(=O)Nc1nnc(NC2CC2)s1 [compound 28] have inhibition at 25 µM greater than or equal to 50%?
[reply] TRUE

[ask] In plain terms: is recorded inhibition at 25 µM at least 50% for O=C(Nc1nnc(NC2CCc3ccccc32)s1)c1c(Cl)cccc1Cl (stereo not drawn) [compound 115] ?
[reply] TRUE

[ask] Is inhibition at 25 µM at least 50%? Consider CC(C)c1cc(C(C)C)c(C(=O)Nc2nnc(NCCc3c[nH]cn3)s2)c(C(C)C)c1 [compound 317]
[reply] FALSE

[ask] Reported inhibition at 25 µM reaches at least 50% for CCOC(=O)N1CCC(Nc2nnc(NC(=O)c3c(Cl)cccc3Cl)s2)CC1 [compound 132] ?
[reply] TRUE

[ask] # check: inhibition at 25 µM of O=C(Nc1nnc(NCCNc2ccccc2)s1)c1ccc(I)cc1 [compound 339] is greater than or equal to 50%
[reply] FALSE

[ask] Does COc1ccccc1C(=O)Nc1nnc(NCCCCc2ccccc2)s1 [compound 429] have a reported inhibition at 25 µM of at least 50%?
[reply] FALSE

[ask] Textbook exercise: given the entry O=C(Nc1nnc(NCCc2ccccc2)s1)c1cccc([N+](=O)[O-])c1 [compound 411] , state whether its inhibition at 25 µM is greater than or equal to 50%.
[reply] FALSE

[ask] Please tell me: is the compound CC1(C)C2CC[C@@H](CNc3nnc(NC(=O)c4cc5ccccc5s4)s3)C1C2 (stereo partly drawn) [compound 403] at or over 50% in terms of inhibition at 25 µM?
[reply] FALSE

[ask] Hi team, for O=C(CCCCCl)Nc1nnc(NCCc2c[nH]c3ccccc23)s1 [compound 346] , is the recorded inhibition at 25 µM at or above 50%?
[reply] FALSE

[ask] State whether the measured inhibition at 25 µM reaches 50%, counting equality as reaching it, for CCCCCCCC/C=C/CCCCCCCC(=O)Nc1nnc(NCc2ccc(Cl)c(Cl)c2)s1 [compound 313]
[reply] FALSE

[ask] Record O=C(CCCCCl)Nc1nnc(NCCCN2CCCC2=O)s1 [compound 325] ; criterion: inhibition at 25 µM no lower than 50%. Met?
[reply] FALSE

[ask] // inclusive: inhibition at 25 µM at least 50%? input: CCOc1ccc2ccccc2c1C(=O)Nc1nnc(NCCSc2ccccc2)s1 [compound 206]
[reply] FALSE

[ask] State whether the measured inhibition at 25 µM reaches 50%, counting equality as reaching it, for O=C(/C=C/c1ccccc1)Nc1nnc(NCCc2cccs2)s1 [compound 77]
[reply] TRUE

[ask] Can O=C(Nc1nnc(NCc2ccc(F)cc2)s1)c1c(Cl)cccc1Cl [compound 144] be said to have inhibition at 25 µM at or above 50%?
[reply] TRUE

[ask] Exam item: decide whether the reported inhibition at 25 µM for CCSCCNc1nnc(NC(=O)/C=C/c2ccccc2Cl)s1 [compound 193] is at least 50%.
[reply] FALSE

[ask] Entry CC(C)c1cc(C(C)C)c(C(=O)Nc2nnc(NCc3cccs3)s2)c(C(C)C)c1 [compound 424] : is its inhibition at 25 µM no less than 50%?
[reply] FALSE

[ask] Given the entry O=C(Nc1nnc(NCCc2c[nH]c3ccccc23)s1)c1cc2ccccc2s1 [compound 269] , answer whether its inhibition at 25 µM meets or surpasses 50%.
[reply] FALSE

[ask] Given O=C(Nc1nnc(NCCC(c2ccccc2)c2ccccc2)s1)c1ccc(C(F)(F)F)cc1 [compound 376] , state whether its inhibition at 25 µM is at least 50%.
[reply] FALSE

[ask] Does the compound COc1ccccc1C(=O)Nc1nnc(NCCCNC2CCCCC2)s1 [compound 387] have recorded inhibition at 25 µM that is 50% or more?
[reply] FALSE

[ask] Test whether the compound O=C(Nc1nnc(NC2CCCCCC2)s1)c1cc(F)cc(F)c1 [compound 300] records inhibition at 25 µM of 50% or higher.
[reply] FALSE

[ask] Kindly determine if inhibition at 25 µM recorded for CC(C)(C)OC(=O)CCNc1nnc(NC(=O)c2ccc3c(c2)C(=O)OC3=O)s1 [compound 340] is above or exactly 50%.
[reply] FALSE

[ask] Does inhibition at 25 µM meet or surpass 50% for O=C(Nc1nnc(NCCC(c2ccccc2)c2ccccc2)s1)c1ccc2c(c1)C(=O)OC2=O [compound 13] ?
[reply] TRUE

[ask] Does the reported inhibition at 25 µM for CCCCCCCC/C=C/CCCCCCCC(=O)Nc1nnc(NC2CCc3ccccc32)s1 (stereo not drawn) [compound 279] fall at or above the 50% mark?
[reply] FALSE

[ask] Kindly determine if inhibition at 25 µM recorded for N#Cc1ccc(C(=O)Nc2nnc(NCC3CCCCC3)s2)cc1 [compound 364] is above or exactly 50%.
[reply] FALSE

[ask] Please check the record CCCCCCCC/C=C/CCCCCCCC(=O)Nc1nnc(NCc2cccs2)s1 [compound 42] and state if its inhibition at 25 µM is at or above 50%.
[reply] TRUE

[ask] In plain terms: is recorded inhibition at 25 µM at least 50% for N#Cc1ccc(C(=O)Nc2nnc(NCCCN3CCCC3=O)s2)cc1 [compound 158] ?
[reply] TRUE

[ask] Item O=C(/C=C/c1ccccc1Cl)Nc1nnc(NCCCN2CCCC2=O)s1 [compound 208] with inhibition at 25 µM of 50% or above?
[reply] FALSE

[ask] Determine whether this compound has inhibition at 25 µM no lower than 50%: CCCCCCCC/C=C/CCCCCCCC(=O)Nc1nnc(NCCc2cccs2)s1 [compound 41]
[reply] TRUE

[ask] Determine whether measured inhibition at 25 µM meets or exceeds 50% for CCCCCCCC/C=C/CCCCCCCC(=O)Nc1nnc(NCCc2c[nH]c3ccccc23)s1 [compound 149]
[reply] TRUE

[ask] In plain terms: is recorded inhibition at 25 µM at least 50% for O=C(CCCCCl)Nc1nnc(NCc2ccc(F)cc2)s1 [compound 321] ?
[reply] FALSE
